// provenance: patent US20100093776A1

- TGT: CDK2/cyclinA (Homo sapiens, UniProt P24941)
- PROCEDURE DETAILS: CDK2/cyclinA IMAP fluorescence polarization kinase assay
- MEASUREMENT CONDITIONS: 4.68 μM ATP, two hours at room temperature
- Experimental: Kinase assays were performed on recombinant purified enzymes using the non-radioactive IMAP fluorescence polarization assay format. […] The samples were allowed to incubate for one more hour at room temperature and then the fluorescence polarization was measured. The plate normalized millipolarization (mP) values were plotted against the log of compound concentration for each compound and IC50 values were calculated using the spotfire IC50 calculator and confirmed by visual analysis.
pIC50: −log10 of the molar value.
OBSERVATION TYPE: pIC50

For orientation, consider the following solved cases.
CC(C)CNC(=O)Cn1ccc2c(-c3ccnc(Nc4cccc(Cl)c4)n3)cccc21 [Compound 16]    < 4.30
O=C(Cn1ccc2c(-c3ccnc(Nc4cccc(Cl)c4)n3)cccc21)NCc1ccccc1 [Compound 17]    < 4.30
CCOC(=O)Cn1ccc2c(-c3ccnc(Nc4cccc(Cl)c4)n3)cccc21 [Compound 5]    < 4.30
Cn1ccc2c(-c3ccnc(Nc4cccc(Cl)c4)n3)cccc21 [Compound 3]    > 5.30
NCCNC(=O)Cn1ccc2c(-c3ccnc(Nc4cccc(Cl)c4)n3)cccc21 [Compound 19]    < 4.30

Enquiry: Identify the measured pIC50 of CNC(=O)Cn1ccc2c(-c3ccnc(Nc4cccc(Cl)c4)n3)cccc21 [Compound 12] for CDK2/cyclinA (Homo sapiens, UniProt P24941).
Return: > 5.30

Enquiry: Report pIC50 for O=C(Cn1ccc2c(-c3ccnc(Nc4cccc(Cl)c4)n3)cccc21)NCCN1CCCC1 [Compound 23] tested on CDK2/cyclinA (Homo sapiens, UniProt P24941).
Return: < 4.30

Enquiry: Provide value of pIC50 for this record tested with CDK2/cyclinA (Homo sapiens, UniProt P24941): NS(=O)(=O)c1cccc(Nc2ncc(F)c(-c3cccc4[nH]ccc34)n2)c1 [Compound 34]
Return: > 5.30

Enquiry: Please tell me: pIC50 of Clc1cccc(Nc2nccc(-c3cccc4c3ccn4Cc3ccccc3)n2)c1 [Compound 6] , system CDK2/cyclinA (Homo sapiens, UniProt P24941)?
Return: < 4.30

Enquiry: Record O=C(Cn1ccc2c(-c3ccnc(Nc4cccc(Cl)c4)n3)cccc21)NCCO [Compound 18] : what is its pIC50 with CDK2/cyclinA (Homo sapiens, UniProt P24941)?
Return: > 5.30

Enquiry: Record lookup: for CDK2/cyclinA (Homo sapiens, UniProt P24941), what pIC50 belongs to OCCn1ccc2c(-c3ccnc(Nc4cccc(Cl)c4)n3)cccc21 [Compound 7] ?
Return: > 5.30
